Biological target: RORγ (UniProt P51449)
Experiment: RORγ Gal4 Reporter Gene Assay in 293T cells (firefly and renilla luciferase)
Assay type: cell-based, human
Conditions: second value of the cell; Gal4 reporter gene assay in 293T cells, firefly luciferase
Property: pIC50 (FF)
Output spec: single numeric token, no unit.

Please review the following examples before continuing.
Cc1c(C(=O)NCC2CCS(=O)(=O)CC2)cc(-c2ccc(S(=O)(=O)NC(C)(C)C)c3ccccc23)n1CC1CCCCC1    7.9
Cc1c(C(=O)NC2CCOCC2)cc(-c2ccc(S(N)(=O)=O)c(C(F)(F)F)c2)n1CC1CCCCC1    6.6
Cc1c(C(=O)NC2CCOCC2)cc(-c2ccc(S(=O)(=O)NC(C)(C)C)c3cccnc23)n1CC1CCCCC1    6.6
Cc1c(C(N)=O)cc(-c2cc(C3CC3)cc(C(C)(C)C)c2)n1CC1CCCCC1    6.1

Continue with the molecule presented below.
Query: Suppose we examine the molecule Cc1c(C(=O)N[C@H]2C[C@@H](C(=O)O)C2)cc(-c2cc(C(C)(C)C)c3c(c2)C2(CCO3)CC2)n1CC1CCCCC1 ; what pIC50 (FF) value has been reported?
Reply: 6.4

Taken from patent US9815851B2.
